Source of measurements: patent US20220289746A1

Target: human M4 receptor (Homo sapiens)
Sequence (P08173 whole entry): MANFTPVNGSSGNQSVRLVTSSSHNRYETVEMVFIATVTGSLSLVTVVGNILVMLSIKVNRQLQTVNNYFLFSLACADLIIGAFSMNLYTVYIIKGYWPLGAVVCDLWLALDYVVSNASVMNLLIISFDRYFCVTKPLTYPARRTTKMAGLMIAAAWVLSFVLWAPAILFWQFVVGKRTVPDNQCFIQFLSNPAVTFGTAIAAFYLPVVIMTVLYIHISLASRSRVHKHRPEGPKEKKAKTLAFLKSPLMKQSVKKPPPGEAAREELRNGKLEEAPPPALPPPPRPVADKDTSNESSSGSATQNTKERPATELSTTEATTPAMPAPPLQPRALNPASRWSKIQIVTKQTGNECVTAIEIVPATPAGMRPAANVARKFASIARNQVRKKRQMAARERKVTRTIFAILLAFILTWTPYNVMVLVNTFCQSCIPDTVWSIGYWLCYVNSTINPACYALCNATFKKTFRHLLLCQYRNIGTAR
Assay: cAMP assay for M4 positive allosteric modulators (M4 PAM cAMP assay)
Format: cell-based
Parameters: expressed in transfected cells; host or cells: CHO-K1
Conditions: Table 1; CHO-K1 cells expressing human M4; forskolin 7.5 μM + acetylcholine EC20 (0.2 nM)
Procedure: The potency of M4 PAMs was determined using a cell-based cyclic adenosine monophosphate assay. The assay was performed with CHO-Kl cells stably expressing untagged human M4 receptor and cAMP was quantified using the Nano-TRF Detection Assay kit (Roche, Cat. No. 05214386) as described in the kit instructions. […] The test plates were read using a SpectraMax i3x reader (Molecular Devices). […]
pEC50: −log10 of the molar value.
observable: pEC50

Some solved entries appear below for comparison.
>  <compound>
COCc1nc2c(c(C)c1Cl)CN(C(=O)[C@@H]1CCN(c3cc(C)ncn3)C1)C2 [Example 53]

>  <pEC50>
6.30

$$$$
>  <compound>
Cc1ccc(N2CC[C@@H](C(=O)N3Cc4nc(C)c(Cl)c(C)c4C3)C2)nn1 [Example 40]

>  <pEC50>
5.70

$$$$
>  <compound>
COc1ccc(N2CC[C@@H](C(=O)N3Cc4nc(C)c(Cl)c(C)c4C3)C2)cn1 [Example 10]

>  <pEC50>
6.00

$$$$
>  <compound>
COCc1nc2c(c(C)c1Cl)CN(C(=O)[C@@H]1CCN(c3cncnc3)C1)C2 [Example 58]

>  <pEC50>
6.75

$$$$

(I) Cc1nc2c(c(C)c1Cl)CN(C(=O)[C@@H]1CCN(c3ccnc(C(F)F)c3)C1)C2 [Example 20]
(II) Cc1nc2c(c(C)c1Cl)CN(C(=O)[C@@H]1CCN(c3nccc(C(F)(F)F)n3)C1)C2 [Example 50]
Looking only at measured pEC50, which entry is lower, I or II ? Identify your selection by its label. II
(II: 5.36, I: 7.10)

(I) COc1cc(N2CC[C@@H](C(=O)N3Cc4nc(C)c(Cl)c(C)c4C3)C2)ncn1 [Example 29]
(II) Cc1nc2c(c(C)c1Cl)CN(C(=O)[C@@H]1CCN(c3ccnnc3)C1)C2 [Example 38]
(III) Cc1nc2c(c(C)c1Cl)CN(C(=O)[C@@H]1CCN(c3ccnc(C(F)(F)F)c3)C1)C2 [Example 21]
(IV) Cc1nc2c(c(C)c1Cl)CN(C(=O)[C@@H]1CCN(c3ccncn3)C1)C2 [Example 2]
Please give the order of these compounds when sorted by pEC50, largest value leading. Return the labels ranked in the requested order, please. IV, III, II, I
(IV: 7.10, III: 6.88, II: 6.48, I: 6.02)

(1) Cc1nc2c(c(C)c1Cl)CN(C(=O)[C@@H]1CCN(c3cc(C(F)(F)F)ncn3)C1)C2 [Example 27]
(2) Cc1nc2c(c(C)c1Cl)CN(C(=O)[C@@H]1CCN(c3cncc(S(C)(=O)=O)c3)C1)C2 [Example 19]
Looking only at measured pEC50, which entry is lower, 1 or 2 ? Identify your selection by its label. 2

(A) Cc1cc(N2CC[C@@H](C(=O)N3Cc4nc(C)c(Cl)c(C)c4C3)C2)ncn1 [Example 26]
(B) CNc1ncc(N2CC[C@@H](C(=O)N3Cc4nc(C)c(Cl)c(C)c4C3)C2)cn1 [Example 35]
(C) Cc1nc2c(c(C)c1Cl)CN(C(=O)[C@@H]1CCN(c3cncnc3)C1)C2 [Example 30]
Please give the order of these compounds when sorted by pEC50, largest value leading. Return the labels ranked in the requested order, please. C, A, B
